STUDY_TARGET: TCT8-4 RNA
ASSAY_NOTES: Competition binding of xanthine derivatives, equilibrium filtration
MEASUREMENT_SETUP: 1 µM 14C-theophylline, 3.3 µM TCT8-4 RNA; read-out: Kc
API: label(entry) gives YES if the entry's Ki is strictly smaller than 8 µM; on equality or larger values it gives NO.

Reference set (5 entries):
stdin: Does Cn1cnc2c1c(=O)[nH]c(=O)n2C [3,7-dimethylxanthine] have Ki strictly under 8 µM?
stdout: NO

stdin: Please indicate whether the reported Ki of O=c1[nH]cnc2nc[nH]c12 [Hypoxanthine] is strictly below 8 µM.
stdout: NO

stdin: I'd appreciate it if you could check whether O=c1[nH]c(=O)c2[nH]cnc2[nH]1 [Xanthine] has Ki smaller than 8 µM.
stdout: NO

stdin: Strictly below 8 µM in Ki? Cn1c(=O)[nH]c(=O)c2[nH]cnc21 [3-methylxanthine]
stdout: YES

stdin: Does the reported Ki of the following molecule sit strictly below 8 µM? Cn1c(=O)c2c(ncn2C)n(C)c1=O [Caffeine, 1,3,7-trimethylxanthine]
stdout: NO

---
stdin: Could you please tell me whether Ki recorded for Cn1c(=O)c2[nH]cnc2n(C)c1=O [Theophylline, 1,3-dimethylxanthine] is less than 8 µM?
stdout: YES

stdin: Dear reviewer, please state whether Cn1c(=O)[nH]c2nc[nH]c2c1=O [1-methylxanthine] has Ki strictly beneath 8 µM.
stdout: NO

stdin: Check if Ki falls below 8 µM for Cn1cnc2[nH]c(=O)[nH]c(=O)c21 [7-methylxanthine] .
stdout: NO

---

System: TCT8-4 RNA
ASSAY_NOTES: Competition binding of xanthine derivatives, equilibrium filtration
MEASUREMENT_SETUP: competitor relative to theophylline
Method: An attractive feature of a small molecule-RNA interaction is the opportunity to readily investigate quantitatively the relative contribution of various constituents of the small molecule to the overall binding. […] In these experiments, the effect of competitor added at various concentrations on the ^14C-theophylline-TCT8-4 RNA interaction was measured. Of particular interest were the roles of CH3 residues at the 1, 3, and 7 positions; these were assessed both individually and in combination. […]
Values of Kc(c)/Kc(t) greater than or equal to 30 map to Y; values below map to N.

Record excerpt, results attached:
stdin: Determine whether this molecule has Kc(c)/Kc(t) no lower than 30: Cn1c(=O)[nH]c(=O)c2[nH]cnc21
stdout: N

stdin: Quick check: does Cn1c(=O)[nH]c2nc[nH]c2c1=O have Kc(c)/Kc(t) greater than or equal to 30?
stdout: N

stdin: Answer whether Kc(c)/Kc(t) of Cn1cnc2[nH]c(=O)[nH]c(=O)c21 is greater than or equal to 30.
stdout: Y

Please look at the following molecule next.
stdin: Exam item: decide whether the reported Kc(c)/Kc(t) for Cn1cnc2c1c(=O)[nH]c(=O)n2C is at least 30.
stdout: Y

---

STUDY_TARGET: Human neutrophil elastase (Homo sapiens, UniProt P08246)
Construct: purchased Athens Research and Technology, Athens, Georgia
Sequence (P08246 30-267): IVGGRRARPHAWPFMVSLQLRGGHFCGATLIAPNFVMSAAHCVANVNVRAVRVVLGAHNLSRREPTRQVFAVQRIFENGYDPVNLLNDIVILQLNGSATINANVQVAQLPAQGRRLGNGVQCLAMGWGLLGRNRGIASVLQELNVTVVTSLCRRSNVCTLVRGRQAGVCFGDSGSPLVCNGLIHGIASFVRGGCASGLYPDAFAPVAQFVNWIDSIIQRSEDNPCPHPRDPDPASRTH
ASSAY_NOTES: Elastase inhibition assay with chromogenic tetrapeptide substrate
Format: biochemical
MEASUREMENT_SETUP: Lineweaver-Burk plot
VALUE_KIND: Ki (µM)
Give just the numeric value; µM need not be written.

stdin: Report Ki for N-methoxysuccinyl Ala-Ala-Pro-Val tested on Human neutrophil elastase (Homo sapiens, UniProt P08246).
stdout: 920

---

STUDY_TARGET: Human neutrophil elastase (human)
ASSAY_NOTES: elastase inhibition assay with chromogenic substrate, Lineweaver-Burk plot (Figure 22)
VALUE_KIND: Ki (µM)
Expressed in µM, but write only the number.

stdin: What does the data say about its Ki? Entry: N-methoxysuccinyl Ala-Ala-Pro-Val (SEQ ID NO:44) (peptide)
stdout: 920

---

Tested on: TCT8-4 RNA
ASSAY_NOTES: Competition binding of xanthine derivatives, equilibrium filtration
MEASUREMENT_SETUP: competitor relative to theophylline
VALUE_KIND: Kc(c)/Kc(t)
Respond using a number only.

// below: answered compounds
stdin: Lab request: please report Kc(c)/Kc(t) under test system TCT8-4 RNA for Cn1c(=O)c2c(ncn2C)n(C)c1=O [Caffeine, 1,3,7-trimethylxanthine]
stdout: 10900

stdin: State its Kc(c)/Kc(t) on TCT8-4 RNA: O=c1[nH]cnc2nc[nH]c12 [Hypoxanthine]
stdout: 153

stdin: Which measured Kc(c)/Kc(t) belongs to Cn1c(=O)c2[nH]cnc2n(C)c1=O [Theophylline, 1,3-dimethylxanthine] , tested on TCT8-4 RNA?
stdout: 1

***
stdin: State its Kc(c)/Kc(t) on TCT8-4 RNA: O=c1[nH]c(=O)c2[nH]cnc2[nH]1 [Xanthine]
stdout: 27

This collection of values is drawn from patent EP1793006A2.
